- assay.method.text: protein stability index of a GFP-peptide fusion (GPS, HEK-293T) (PSI 1-6); higher = more stable;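 further: 24-mer peptide tiles fused after GFP, lentivirally expressed, FACS-sorted into six equal bins by GFP/DsRed ratio, decoded by Illumina sequencing, PSI is the read-weighted mean bin number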
- conditions: treatment: DMSO; c terminus: a fixed tail appended
readout.kind: protein stability index

Take a look at these entries with their results.
RSLLRLRATRAGAAEEPGVRGLLA [C2CD2L] :: 3.17
FQFASIDVAGNLDYKALSYVITHG [MYL5] :: 2.51
PVASSGEFFGSASQPAVELVSGSQ [CLINT1] :: 4.57
CTLPQLAIAWCLRNEGVSSVLLGA [KCNAB2] :: 3.1
LRRKSPASGQGPMCNVKAPLGSPS [ADAMTS4] :: 3.85
RGNVVLRAQMIRNEYRKLHPVLHK [TRIM43] :: 2.25
SRVAHIERTRKPYNNDIDYYAKRN [GALNT9] :: 3.77
EAQAFRALVQEKIQKRNQRQSGDR [WAS] :: 4.5

# map each sequence to its protein stability index
1. KIKKSPLTICYPEYAGSNTYEEAA [GNAI1]
2. TYNLTEVDKYVNSFVLKNFPALLS [KLHL13]
3. IVISPFRLEELTNRLASLQQENKV [CCDC6]
4. SGRFAGREWYYGNVTRHQAECALN [NCK2]
5. LAMNYKHGDPIPKVEFTEEEIKTW [TPH1]
6. YPASIVDEPTFKVLLKTADPRYEL [ZBED1]
7. GAREEDLDAVEAQIGCKLPDDYRC [FBXO3]

[3.34, 2.08, 2.12, 2.31, 4.21, 2.89, 5.25]

The measured values listed here are drawn from the supplement of paper PMC10567573.
